# Test system: LNCaP clone FGC
# ASSAY METHOD TEXT: Prostate cancer cell proliferation assay (Cell titer-Glo, 72 h), LNCaP clone FGC
# Assay type: cell-based
# CONDITION: Homo sapiens, LNCaP clone FGC cells, inhibition of proliferation, read-out: Compound IC50/nM
READOUT: IC50

Form field IC50, entry Cc1[nH]nc2c1N=C(c1ccccc1Cl)c1cnc(N3CCOCC3)cc1N2 [Compound 29] : 1000 to 10000 nM
